System: T-cell
test: Inhibition of anti-CD3/anti-CD28-induced IL2 secretion in human CD4+ T cells
pIC50: −log10 of the molar value.
// values below are reported pIC50

{"compound structure": "CN(C(=O)C1CCCCC1)c1ccc2c(c1)nc(NC(=O)c1ccc(C#N)cc1)n2CCCn1ccnc1", "pIC50": 6.19}
{"compound structure": "CN(C(=O)C1CCCCC1)c1ccc2c(c1)nc(NC(=O)c1ccc(Cl)cc1)n2CCC(N)=O", "pIC50": 5.39}

* * *

target system: Tyrosine-protein kinase ITK/TSK (Homo sapiens)
Sequence (Q08881 whole entry): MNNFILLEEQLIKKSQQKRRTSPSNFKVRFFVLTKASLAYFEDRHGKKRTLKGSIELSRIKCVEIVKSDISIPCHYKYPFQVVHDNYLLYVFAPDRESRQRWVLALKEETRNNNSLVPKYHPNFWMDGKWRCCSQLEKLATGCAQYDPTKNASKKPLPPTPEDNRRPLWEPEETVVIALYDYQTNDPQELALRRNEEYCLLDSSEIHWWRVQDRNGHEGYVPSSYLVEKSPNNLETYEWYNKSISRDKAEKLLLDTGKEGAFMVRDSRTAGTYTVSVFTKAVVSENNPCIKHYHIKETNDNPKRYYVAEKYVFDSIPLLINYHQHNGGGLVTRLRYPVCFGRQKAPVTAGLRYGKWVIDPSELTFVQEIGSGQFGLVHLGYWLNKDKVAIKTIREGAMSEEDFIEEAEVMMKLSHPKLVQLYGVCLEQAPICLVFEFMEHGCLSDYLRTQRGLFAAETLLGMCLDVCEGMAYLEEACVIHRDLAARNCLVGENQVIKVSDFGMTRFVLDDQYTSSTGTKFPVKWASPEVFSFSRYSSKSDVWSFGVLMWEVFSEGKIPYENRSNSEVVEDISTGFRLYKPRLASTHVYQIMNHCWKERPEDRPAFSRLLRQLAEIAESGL
test: Inhibition of ITK by DELFIA assay
pIC50: −log10 of the molar value.
# pIC50 per entry

{"compound": "CN(C(=O)C1CCCCC1)c1ccc2c(c1)nc(NC(=O)c1ccc(C#N)cc1)n2CCCn1ccnc1", "bound operator": "=", "pIC50": 8.40}
{"compound": "CN(C(=O)C1CCCCC1)c1ccc2c(c1)nc(NC(=O)c1ccc(C#N)cc1)n2CCc1ccc(Cl)cc1Cl", "bound operator": "=", "pIC50": 5.70}
{"compound": "CN(C(=O)C1CCCCC1)c1ccc2c(c1)nc(NC(=O)c1cccc(Br)c1)n2CCC(N)=O", "bound operator": "=", "pIC50": 8.05}
{"compound": "CC(C)C(=O)N(C)c1ccc2c(c1)nc(NC(=O)c1ccc(C#N)cc1)n2CCC(N)=O", "bound operator": "=", "pIC50": 6.66}
{"compound": "CN(C(=O)C1CCCCC1)c1ccc2c(c1)nc(NC(=O)c1ccc(C#N)cc1)n2CC(N)=O", "bound operator": "=", "pIC50": 7.14}
{"compound": "CNC(=O)CCn1c(NC(=O)c2ccc(C#N)cc2)nc2cc(N(C)C(=O)C3CCCCC3)ccc21", "bound operator": "=", "pIC50": 8.05}
{"compound": "COCCCn1c(NC(=O)c2ccc(C#N)cc2)nc2cc(N(C)C(=O)C3CCCCC3)ccc21", "bound operator": "=", "pIC50": 7.80}
{"compound": "CNC(=O)c1ccc(C(=O)Nc2nc3cc(N(C)C(=O)C4CCCCC4)ccc3n2CCC(N)=O)cc1", "bound operator": "=", "pIC50": 5.74}
{"compound": "CCCCCCCn1c(NC(=O)c2ccc(C#N)cc2)nc2cc(N(C)C(=O)C3CCCCC3)ccc21", "bound operator": "=", "pIC50": 5.35}
{"compound": "CNc1ccc2c(c1)nc(NC(=O)c1ccc(C#N)cc1)n2CCC(N)=O", "bound operator": "=", "pIC50": 7.12}
{"compound": "CC(C(=O)C1CCCCC1)c1ccc2c(c1)nc(CC(=O)c1ccc(C#N)cc1)n2CCC(N)=O (stereo not given)", "bound operator": "=", "pIC50": 8.52}
{"compound": "CN(C(=O)C1CCCCC1)c1ccc2c(c1)nc(CC(=O)c1ccc(Cl)cc1)n2CCc1ccccc1", "bound operator": "<", "pIC50": 4.70}
{"compound": "CN(C(=O)C1CCCCC1)c1ccc2c(c1)nc(N)n2CCC(N)=O", "bound operator": "<", "pIC50": 4.70}
{"compound": "CC(C)n1c(NC(=O)c2ccc(C#N)cc2)nc2cc(N(C)C(=O)C3CCCCC3)ccc21", "bound operator": "=", "pIC50": 7.46}
{"compound": "CN(C(=O)C1CCCCC1)c1ccc2c(c1)nc(NC(=O)c1ccc(Br)cc1)n2CCC(N)=O", "bound operator": "=", "pIC50": 8.52}

Just for reference, ChEMBL document CHEMBL1142468 is where these values come from.
